Data origin: PubChem BioAssay

test: NIH:OVCAR-3 ovarian cancer cell cytotoxicity, dose response, PAX8 inhibitor project, plate reader, dry powder samples (AID 743044); settings: NIH:OVCAR-3 ovarian cancer cell viability; at 35 µM, hits give low values unless noted
Measured potencies and affinities stand elsewhere. Inconclusive results are not listed. Activity calls are given as the source filed them. No rule for the calls is given here.
PROPERTY: max activity

What value of max activity has been recorded for this entry: COc1ccc(S(=O)(=O)Nc2ccc3c(c2)C(=O)N([C@@H](C)CO)C[C@H](C)[C@@H](CN(C)C(=O)Nc2ccc(F)cc2)OCCCC[C@H](C)O3)cc1 -15.3% (inactive)

Form field: reported max activity of C[C@@H]1CCCCO[C@H](CN(C)CC2CCCCC2)[C@H](C)CN([C@H](C)CO)C(=O)c2cc(NS(=O)(=O)c3ccc(Cl)cc3)ccc2O1 10.1% (inactive)

What value of max activity has been reported for the following molecule? O=C(Nc1ccc(F)cc1)N1CCCCN2[C@@H](CO)[C@@H](c3ccc(-c4cccc(F)c4)cc3)[C@@H]2C1 -20% (inactive)
